These measurements were taken from ChEMBL document CHEMBL3785053.

System: MCF7
ASSAY INFO: Cytotoxicity against human MCF7 cells after 48 hrs by MTT assay
Type: functional, cell-based
TEST SETTINGS: MCF7, 48 h
pIC50: −log10 of the molar value.
Label scheme for pIC50: lower than 5 is N, 5 and above is Y.

Some solved cases for reference:
1. COc1ccccc1/C=C1\C[C@]2(C)[C@H]3CC=C4[C@@H]5[C@@H](C)[C@H](C)CC[C@]5(C(=O)O)CC[C@@]4(C)[C@]3(C)CC[C@H]2C(C)(C)C1=O: Y
2. C[C@H]1[C@H](C)CC[C@]2(C(=O)O)CC[C@]3(C)C(=CC[C@@H]4[C@@]5(C)CCC(=O)C(C)(C)[C@@H]5CC[C@]43C)[C@H]12: N
3. C[C@H]1[C@H](C)CC[C@]2(C(=O)O)CC[C@]3(C)C(=CC[C@@H]4[C@@]5(C)C/C(=C\c6ccc([N+](=O)[O-])cc6)C(=O)C(C)(C)[C@@H]5CC[C@]43C)[C@H]12: Y
4. C[C@H]1[C@H](C)CC[C@]2(C(=O)O)CC[C@]3(C)C(=CC[C@@H]4[C@@]5(C)C/C(=C\c6ccccc6[N+](=O)[O-])C(=O)C(C)(C)[C@@H]5CC[C@]43C)[C@H]12: N
5. C[C@H]1[C@H](C)CC[C@]2(C(=O)O)CC[C@]3(C)C(=CC[C@@H]4[C@@]5(C)C/C(=C\c6ccc([N+](=O)[O-])cc6[N+](=O)[O-])C(=O)C(C)(C)[C@@H]5CC[C@]43C)[C@H]12: Y
6. COc1cc(/C=C2\C[C@]3(C)[C@H]4CC=C5[C@@H]6[C@@H](C)[C@H](C)CC[C@]6(C(=O)O)CC[C@@]5(C)[C@]4(C)CC[C@H]3C(C)(C)C2=O)cc(OC)c1OC: Y

Task: # check: pIC50 of "C[C@H]1[C@H](C)CC[C@]2(C(=O)O)CC[C@]3(C)C(=CC[C@@H]4[C@@]5(C)C/C(=C\c6cccc(Cl)c6)C(=O)C(C)(C)[C@@H]5CC[C@]43C)[C@H]12" is greater than or equal to 5
Result: N

----------
System: A549
ASSAY INFO: Cytotoxicity against human A549 cells at 50 uM after 48 hrs by MTT assay
Format: functional
TEST SETTINGS: A549, 48 h, read-out: GI
# maps each entry to its inhibition of growth at 50 µM
The figure you give is taken to be in %; do not add the unit.

1. C[C@H]1[C@H](C)CC[C@]2(C(=O)O)CC[C@]3(C)C(=CC[C@@H]4[C@@]5(C)C/C(=C\c6ccccc6)C(=O)C(C)(C)[C@@H]5CC[C@]43C)[C@H]12: 60

Task: If you can, please state the reported inhibition of growth at 50 µM value of "C[C@H]1[C@H](C)CC[C@]2(C(=O)O)CC[C@]3(C)C(=CC[C@@H]4[C@@]5(C)C/C(=C\C=C\c6ccccc6)C(=O)C(C)(C)[C@@H]5CC[C@]43C)[C@H]12" .
Result: 89

Task: // returns reported inhibition of growth at 50 µM for input "O=c1[nH]cc(F)c(=O)[nH]1"
Result: 82

Task: Which inhibition of growth at 50 µM value is on record for "C[C@H]1[C@H](C)CC[C@]2(C(=O)O)CC[C@]3(C)C(=CC[C@@H]4[C@@]5(C)C/C(=C\c6ccc([N+](=O)[O-])cc6[N+](=O)[O-])C(=O)C(C)(C)[C@@H]5CC[C@]43C)[C@H]12" ?
Result: 98
